- Method: In vivo pattern recognition of TEF: UPLC–MS metabolic profiling of blood after oral administration
- Set-up: species or system rats
- Assay setup: blood 12 h after oral TEF to rats; UPLC–MS abundance of mass
# Metabolites Pattern in TEF and Blood (Abundance) annotations
Property: Metabolites Pattern in TEF and Blood (Abundance)

CC(C)CCCCCCCCCCCC(=O)O: 21,675
CC(=O)O[C@@H]1C(=O)C2=C(C(=O)C[C@H]3C(C)(C)[C@@H](O)CC[C@]23C)[C@]2(C)C(=O)C[C@H]([C@H](C)CC(=O)CC(C)C(=O)O)[C@@]12C (stereo partly drawn): 24,978
CCCCC/C=C\C/C=C\CCCCCCCC(=O)O: 18,756
C[C@H](CC(=O)C[C@@H](C)[C@H]1C[C@H](O)[C@@]2(C)C3=C(C(=O)C[C@]12C)[C@@]1(C)CCC(=O)C(C)(C)[C@@H]1C[C@@H]3O)C(=O)O: 22,987
OC[C@H]1OC(c2c(O)cc3c(c2O)C[C@@H](O)[C@@H](c2ccc(O)c(O)c2)O3)[C@H](O)[C@@H](O)[C@@H]1O (stereo partly drawn) [Epicatechin-6-glucoside]: 22,346
CC(CC(=O)C[C@@H](C)[C@H]1CC(=O)[C@@]2(C)C3=C(C(=O)C[C@]12C)[C@@]1(C)CCC(=O)C(C)(C)[C@@H]1C[C@@H]3O)C(=O)O (stereo partly drawn): 26,657
